Reported IC50 values for the following compounds.
target: LTA4 hydrolase (Cavia porcellus, UniProt P19602); construct: Lungs were excised from a Hartley guinea pig; from tissue; host or cells: Hartley guinea pig lung, 100,000×g supernatant, 40-70% ammonium sulfate fraction, dialyzed; experiment: LTA4 hydrolase inhibition (LTB4 formed from LTA4, guinea pig lung enzyme preparation); type: biochemical; details: Table 2; guinea pig lung enzyme preparation; LTA4 63 μM; 37° C., one minute; pH 7.8; read-out: IC50 (concentration required to inhibit LTA4 hydrolase by 50%)
Sequence (P19602 whole entry): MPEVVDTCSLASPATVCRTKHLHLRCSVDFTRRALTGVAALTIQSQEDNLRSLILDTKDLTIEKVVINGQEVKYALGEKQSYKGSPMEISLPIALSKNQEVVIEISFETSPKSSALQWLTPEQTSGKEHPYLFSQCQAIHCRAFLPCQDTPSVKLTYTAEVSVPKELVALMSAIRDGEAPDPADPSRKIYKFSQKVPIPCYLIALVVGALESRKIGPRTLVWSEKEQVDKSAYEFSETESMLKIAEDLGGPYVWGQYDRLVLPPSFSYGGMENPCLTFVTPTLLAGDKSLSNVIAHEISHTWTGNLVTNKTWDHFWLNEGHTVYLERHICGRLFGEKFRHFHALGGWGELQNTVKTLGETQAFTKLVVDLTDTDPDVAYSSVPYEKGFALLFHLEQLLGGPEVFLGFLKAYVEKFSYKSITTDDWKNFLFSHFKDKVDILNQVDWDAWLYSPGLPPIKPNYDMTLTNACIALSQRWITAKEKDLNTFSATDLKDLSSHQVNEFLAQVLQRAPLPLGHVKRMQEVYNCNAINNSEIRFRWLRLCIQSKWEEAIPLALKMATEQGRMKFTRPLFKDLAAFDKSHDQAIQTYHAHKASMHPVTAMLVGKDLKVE
Could you give me the number in nM? Just the number is fine.

CSc1ccc(CSC[C@H](NC(=O)[C@H](C)CSC(=O)c2ccccc2)C(=O)O)cc1 :: 110
C[C@H](CSC(=O)c1ccccc1)C(=O)N[C@@H](CSCc1ccc(OC(F)(F)F)cc1)C(=O)O :: 100
C[C@H](CS)C(=O)N[C@@H](CSCc1ccc(S(C)(=O)=O)cc1)C(=O)O :: 160
CC(CS)C(=O)N[C@@H](CSCc1ccc(C(C)(C)C)cc1)C(=O)O (stereo partly shown) :: 58

Given item `C[C@H](CSC(=O)c1ccccc1)C(=O)N[C@@H](CSCc1ccc(S(C)(=O)=O)cc1)C(=O)O` , the value recorded as its IC50 is 200

Given item CC(SC[C@H](NC(=O)[C@H](C)CS)C(=O)O)c1ccc(C(C)(C)C)cc1 (stereo partly shown) , the value recorded as its IC50 is 68

Given item `C[C@H](CS)C(=O)N[C@@H](CSCc1ccc(C2CCCCC2)cc1)C(=O)O` , the value recorded as its IC50 is 79

---

Reported pIC50 values for the following compounds.
target: LTA4 hydrolase (Cavia porcellus, UniProt P19602); construct: Lungs were excised from a Hartley guinea pig; from tissue; host or cells: Hartley guinea pig lung, 100,000×g supernatant, 40-70% ammonium sulfate fraction, dialyzed; assay: LTA4 hydrolase inhibition (LTB4 formed from LTA4, guinea pig lung enzyme preparation); assay type: biochemical; conditions: Table 2; guinea pig lung enzyme preparation; LTA4 63 μM; 37° C., one minute; pH 7.8; read-out: IC50 (concentration required to inhibit LTA4 hydrolase by 50%)
pIC50 is a log-scale quantity: -log10 of the concentration expressed in molar.

Take a look at these entries with their results.
CCc1ccc(CSC[C@H](NC(=O)[C@H](C)CSC(=O)c2ccccc2)C(=O)O)cc1 [Compound No. 1-8] :: 6.92
CC(C)c1ccc(C(C)SC[C@H](NC(=O)[C@H](C)CS)C(=O)O)cc1 (stereo partly drawn) [Compound No. 2-30] :: 7.26

Given item C[C@H](CS)C(=O)N[C@@H](CSC(C)(C)c1ccc(C2CCCCC2)cc1)C(=O)O [Compound No. 2-39] , the value recorded as its pIC50 is 7.26
